- testName: inhibitors of hydroxyurea-induced Chk1 phosphorylation, primary screen, imaging, HeLa, phospho-Chk1 nuclear intensity (AID 1187); further: test concentration not given here
- measurementSetup: hydroxyurea-induced phospho-Chk1 immunofluorescence imaging, higher = more signal
Classification field: enter t for z-score values not below 0.08, f for values below it.

Hi, just wondering whether CC1CC/C=C\[C@H]2OC34C=CCN(C(C)C)C(=O)[C@H]3N(C(C)CO)C(=O)[C@@H]4C2C(=O)O1 (stereo partly drawn) shows z-score of 0.08 or higher.
f

Hi, just wondering whether `C[C@]1(C(=O)NCC(F)(F)F)c2ccccc2C(=O)N(Cc2cc(C(F)(F)F)cc(C(F)(F)F)c2)[C@H]1c1ccc(CO)cc1` shows z-score of 0.08 or higher.
f

Hi, just wondering whether `COC(=O)C(CC#Cc1ccc2c(c1)[C@]1(C(=O)N2)[C@H](C(=O)NC[C@H](O)c2ccccc2)[C@H]2C(=O)O[C@H](c3ccccc3)[C@H](c3ccccc3)N2[C@@H]1c1ccc(O)cc1)C(=O)OC` shows z-score of 0.08 or higher.
t

Hi, just wondering whether `COc1c(C)cc(-c2nc(-c3ccccc3)c3c(c2C)CO[Si]3(C(C)C)C(C)C)cc1C` shows z-score of 0.08 or higher.
f

Hi, just wondering whether `C=CCNC(=O)[C@H]1[C@@H]2C(=O)O[C@@H](c3ccccc3)[C@@H](c3ccccc3)N2[C@@H](c2ccc(O)cc2)[C@]12C(=O)N(C(=O)OCCOC)c1ccc(C#Cc3ccc(OC)cc3)cc12` shows z-score of 0.08 or higher.
t

Hi, just wondering whether `COc1ccc(C(=O)Nc2ccc(CN3C(=O)[C@@]4(O[C@@H](CC(=O)N(CCO)Cc5ccccc5)[C@H]([Si](C)(C)c5ccc(OC)cc5)[C@H]4C)c4ccccc43)cc2)cc1` shows z-score of 0.08 or higher.
f

Hi, just wondering whether CC(C)C[C@H]1NC(=O)CNC(=O)[C@@]23C(=O)N[C@@H](Cc4ccccc4)C2[C@H](C)[C@@]2(C)O[C@H]2C3/C=C/C/C=C\CNC1=O (stereo partly drawn) shows z-score of 0.08 or higher.
f

Hi, just wondering whether CN1C(=O)C2C=CC(C(O)c3ccc([N+](=O)[O-])cc3)N(Nc3ccccc3)C2C1=O (stereo not drawn) shows z-score of 0.08 or higher.
t

Hi, just wondering whether `CC[C@@H](O[Si](C#C[Si](C(C)C)(C(C)C)C(C)C)(C(C)C)C(C)C)c1cn(Cc2cccc(Cl)c2)nn1` shows z-score of 0.08 or higher.
f

Hi, just wondering whether `C=CCOC(=O)[C@H]1[C@@H]2C(=O)O[C@@H](c3ccccc3)[C@@H](c3ccccc3)N2[C@@H](c2ccc(OCCOC(=O)[C@H]3C[C@H]4C(=O)NCC(=O)N4[C@H]3c3cccc(OCCO)c3)cc2)[C@]12C(=O)Nc1ccc(I)cc12` shows z-score of 0.08 or higher.
f

Hi, just wondering whether `C[N+](C)(C)CCCC[C@@H]1NC(=O)[C@H]2C[C@@H](C(=O)NCCCCCN)[C@@H](c3ccc(O)cc3)N2C1=O` shows z-score of 0.08 or higher.
t

Hi, just wondering whether COC(=O)[C@H](Cc1ccccc1)N1CC(C)(OC)O[C@@H](Cc2ccccc2)[C@H]1/C=C/C1CC1 (stereo partly drawn) shows z-score of 0.08 or higher.
t
